experiment: Determination of the elimination half-lives t1/2 β, intravenous, rats; format: in vivo; conditions: rat, i.v., 5 mg/kg, plasma, calculated, second phase
RECORDED ENDPOINT: half-life (min)

COMPOUND | ENDPOINT RESULT
COc1cc(C)c(S(=O)(=O)N[C@@H](CC(=O)O)C(=O)N[C@H](Cc2ccc(C(=N)N)cc2)C(=O)N2CCCCC2)c(C)c1C [(5)] | 19

====

biological target: human thrombin (Homo sapiens); experiment: Determination of the inhibition constants (Ki) for thrombin; format: biochemical; conditions: human thrombin 100 pM, substrate S2238, pH 7.8, 37 degrees C., 60 min preincubation

ENTRY SMILES | SCALE UNIT | Ki
COc1cc(C)c(S(=O)(=O)N[C@@H](CC(=O)O)C(=O)N[C@H](Cc2ccc(C(=N)N)cc2)C(=O)N2CCCCC2)c(C)c1C | nM | 2.5

Taken from patent US5571844A.
